For each of the molecules below, state its %Inh.
Test system: PAK7
Conditions: concentration: 1 μM, replicates: in singlicate; n = 1;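 note: KINOMEscan kinase panel screen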
Record the value in %, omitting the unit from your answer.

molecule Nc1cccc(-c2ccc3c(N)n[nH]c3c2)n1 [GSK2192730] , %Inh observed: 7

molecule COc1ccc(Nc2nccc(N3CCC(NC(=O)c4cc5ccccc5s4)C3)n2)cc1 (stereo not drawn) [GSK1379738] , %Inh observed: 0

molecule Cc1c(Cn2c3ccccc3n3c(=O)cc(N4CCOCC4)nc23)cccc1C(F)(F)F [GSK2306394] , %Inh observed: 0

molecule COc1ccc2cc(-c3nc(-c4ccccc4C(C)C)[nH]c3-c3ccncc3)ccc2c1 [SB-660566] , %Inh observed: 0

molecule CNc1cc(-c2ccc3c(N)n[nH]c3c2)nc(N)n1 [GSK2224810] , %Inh observed: 17

molecule `COc1ccc(CSc2nnc(-c3ccc4ncsc4c3)o2)cc1C(F)(F)F` , %Inh observed: 1

====

For each of the molecules below, state its %Inh.
System: JNK3
Construct: gene MAPK10
Conditions: concentration: 1 μM, replicates: in singlicate; n = 1
Record the value in %, omitting the unit from your answer.

molecule `COc1ccc(CSc2nnc(-c3ccc4nccn4c3)o2)cc1C(F)(F)F` , %Inh observed: 0

molecule `Cc1cnc(N)c(/C=C/c2cncc(C(=O)NCCc3ccc(Cl)cc3Cl)c2)c1.Cl` , %Inh observed: 4

molecule CC(=O)c1cccc(NC(=O)NC2CCN(c3ccnc(Nc4ccc(F)cc4)n3)C2)c1 (centres unmarked) , %Inh observed: 22

molecule COC(=O)c1cccc(NC(=O)NC2CCN(c3ccnc(Nc4ccc(F)cc4)n3)C2)c1 (centres unmarked) , %Inh observed: 17

molecule `Cc1ccc(NC(=O)Nc2ccc(Cl)c(C(F)(F)F)c2)cc1-c1ccc(C(=O)Nc2ccncc2)cc1` , %Inh observed: 0

molecule `Cl.Cl.Cl.N#Cc1ccc(CCNc2nccc(-c3cccc(CN4CCNCC4)c3)n2)cc1` , %Inh observed: 22

molecule `COc1cccc(NC(=O)Nc2ccc(C)c(-c3ccc(C(=O)Nc4ccncc4)cc3)c2)c1` , %Inh observed: 26

molecule `CCCCc1nn2ncccc2c1-c1ccnc(NC2CC2)n1` , %Inh observed: 82

====

Test system: GRK1
Conditions: concentration: 1 μM, replicates: in singlicate; n = 1
For each of the compounds below, state its %Inh.
Record the value in %, omitting the unit from your answer.

compound COc1ccc2cc(-c3nc(-c4ccccc4C(C)C)[nH]c3-c3ccncc3)ccc2c1 [SB-660566] , %Inh observed: 0

compound COC(=O)C(NC(=O)NC1CCN(c2ccnc(Nc3ccc(F)cc3)n2)C1)c1ccccc1 (centres unmarked) [GSK1379712] , %Inh observed: 0

compound NS(=O)(=O)c1cccc(N/C=C2\C(=O)Nc3ccc(S(=O)(=O)Cc4c(Cl)cccc4Cl)cc32)c1 [GSK398099] , %Inh observed: 0

compound CC(=O)c1cccc(NC(=O)NC2CCN(c3ccnc(Nc4ccc(F)cc4)n3)C2)c1 (centres unmarked) [GSK1379710] , %Inh observed: 0

compound CC(C)c1cc(-c2ccc3c(N)n[nH]c3c2)nc(N)n1 [GSK2250882] , %Inh observed: 0

compound Cc1ccc(NC(=O)Nc2ccc(Cl)c(C(F)(F)F)c2)cc1-c1ccc(C(=O)Nc2ccncc2)cc1 [GSK1398470] , %Inh observed: 0

compound CS(=O)(=O)Cc1ccc(Nc2nccc(-c3c(-c4cccc(NC(=O)C5CCCCC5)c4)nn4ncccc34)n2)cc1 [GSK350559] , %Inh observed: 0

compound CCn1c(-c2ccccc2)nc2cnccc21 [SB-733416] , %Inh observed: 6

compound Fc1ccc(-c2nn3cccc(F)c3c2-c2ccncc2)cc1 [GW475620] , %Inh observed: 0

compound COC(=O)c1cccc(NC(=O)NC2CCN(c3ccnc(Nc4ccc(F)cc4)n3)C2)c1 (centres unmarked) [GSK1379725] , %Inh observed: 5

compound O=C1NC(=O)C(c2ccc(Cl)cc2)=C1Nc1ccc(O)cc1 [SB-340867] , %Inh observed: 0

compound Cc1ccc(NC(=O)Nc2ccccc2)cc1-c1ccc(C(=O)Nc2ccncc2)cc1 [GSK1398471] , %Inh observed: 2

compound Cc1ccc(NC(=O)Nc2ccc(Cl)cc2)cc1-c1ccc(C(=O)Nc2ccncc2)cc1 [GSK1398472] , %Inh observed: 0

compound O=C(Nc1n[nH]c2nc(-c3cccs3)c(Br)cc12)C1CC1 [SB-735297] , %Inh observed: 10

compound Cc1c(Cn2c(C)c(C)n3c(=O)cc(N4CCOCC4)nc23)cccc1C(F)(F)F [GSK2328680] , %Inh observed: 9

compound Cn1cncc1-c1cc2c(Nc3ccc(OCc4ccccc4)cc3)ncnc2cn1 [GW281179] , %Inh observed: 0

compound Cc1ccc(NC(=O)c2ccc(Cl)cc2)cc1-c1ccc(C(=O)Nc2ccncc2)cc1 [GSK1398467] , %Inh observed: 0

compound Cc1cccc2c(-c3ccncn3)c(-c3ccc(F)cc3)nn12 [GW515532] , %Inh observed: 3

compound Cc1ccccc1Cn1ccn2c(=O)cc(N3CCOCC3)nc12 [GSK2269905] , %Inh observed: 0

compound Cn1cnc2c(N)ncnc21 [SKF-97623] , %Inh observed: 0

compound O=C1NC(=O)C(c2ccc(Cl)cc2)=C1Nc1cccc(Cl)c1 [SB-317651] , %Inh observed: 11

compound Nc1ncnc2occ(-c3ccc4c(c3)CCN4C(=O)Cc3cc(F)ccc3F)c12 [GSK2645446] , %Inh observed: 0

compound c1ccc(-c2ccnc3[nH]ccc23)cc1 [SB-693578] , %Inh observed: 6

compound CNc1nc(-c2ccc3c(N)n[nH]c3c2)cc(N2C[C@@H](C(=O)NC3CCCCC3)OC[C@H]2C)n1 [GSK2375584] , %Inh observed: 12

compound CC[C@@H]1CO[C@H](C(=O)Nc2ccccc2)CN1c1cc(-c2ccc3c(N)n[nH]c3c2)nc(NC)n1 [GSK2376236] , %Inh observed: 0

compound `COc1ccc(CSc2nnc(-c3ccc4c(c3)CCO4)o2)cc1` , %Inh observed: 0

compound CSc1ccc(-c2nc3n(c2-c2ccncc2)CCC3)cc1 [SKF-105561] , %Inh observed: 8

compound Cc1cnc(N)c(/C=C/c2cncc(C(=O)NCCc3ccc(Cl)cc3Cl)c2)c1.Cl [GSK190937] , %Inh observed: 0

compound COc1cccc(NC(=O)Nc2ccc(C)c(-c3ccc(C(=O)Nc4ccncc4)cc3)c2)c1 [GSK1398474] , %Inh observed: 28

compound Cc1nccc(-c2c(-c3ccc(F)cc3)ncn2CCCN2CCOCC2)n1.Cl [SB-282975] , %Inh observed: 78

compound COc1ccc(Nc2nccc(N3CCC(NC(=O)C(C)c4ccc(Cl)cc4)CC3)n2)cc1 (centres unmarked) [GSK1379812] , %Inh observed: 0

compound CS(=O)(=O)CCNCc1nc(-c2ccc3ncnc(Nc4ccc(OCc5ccccc5)c(Cl)c4)c3c2)cs1.Cl [GW582764] , %Inh observed: 0

compound O=c1cc(N2CCOCC2)nc2n(Cc3cccc(Cl)c3Cl)c3ccccc3n12 [GSK2299009] , %Inh observed: 0

compound Cc1c(Cn2c3ccccc3n3c(=O)cc(N4CCOCC4)nc23)cccc1C(F)(F)F [GSK2306394] , %Inh observed: 0

compound COc1ccc(Nc2nccc(NCCNC(=O)Nc3cc(C)ccc3C)n2)cc1 [GSK1379899] , %Inh observed: 0

====

System: CSNK1A1L
Conditions: concentration: 1 μM, replicates: in singlicate; n = 1
readout: %Inh
Report the figure along with its unit, number first.

molecule COc1nccc(-c2c(-c3ccc(F)cc3)ncn2CCCN2CCOCC2)n1 [SB-282852] , %Inh observed: 45%

molecule Fc1ccc(-c2nc3n(c2-c2ccncc2)CCS3)cc1 [GI98581] , %Inh observed: 30%

molecule Cc1ccc(NC(=O)Nc2ccccc2F)cc1-c1ccc(C(=O)Nc2ccncc2)cc1 [GSK1398477] , %Inh observed: 20%

molecule `CCc1ccc(-c2ccc3c(c2)-c2n[nH]cc2S(=O)(=O)N3C)cc1` , %Inh observed: 0%

molecule CC(=O)c1cccc(NC(=O)NC2CCN(c3ccnc(Nc4ccc(F)cc4)n3)C2)c1 (centres unmarked) [GSK1379710] , %Inh observed: 0%

molecule COc1ccc(Nc2nccc(N3CCC(NC(=O)C(C)c4ccc(Cl)cc4)CC3)n2)cc1 (centres unmarked) [GSK1379812] , %Inh observed: 0%

molecule `COc1ccc(CSc2nnc(-c3ccc4ncsc4c3)o2)cc1C(F)(F)F` , %Inh observed: 0%

molecule CCCCc1nn2ncccc2c1-c1ccnc(NC2CC2)n1 [GW684374] , %Inh observed: 0%

molecule COc1ccc(Nc2nccc(N3CCC(NC(=O)c4cc5ccccc5s4)C3)n2)cc1 (centres unmarked) [GSK1379738] , %Inh observed: 2%

molecule Cl.Cl.Cl.N#Cc1ccc(CCNc2nccc(-c3cccc(CN4CCNCC4)c3)n2)cc1 [GSK2137462] , %Inh observed: 2%

molecule Nc1cccc(-c2ccc3c(N)n[nH]c3c2)n1 [GSK2192730] , %Inh observed: 0%

molecule Nc1ncnc2occ(-c3ccc4c(c3)CCN4C(=O)Cc3cc(F)ccc3F)c12 [GSK2645446] , %Inh observed: 1%

molecule CNc1nc(-c2ccc3c(N)n[nH]c3c2)cc(N2C[C@@H](C(=O)NC3CCCCC3)OC[C@H]2C)n1 [GSK2375584] , %Inh observed: 16%

molecule Cc1ccc(NC(=O)Nc2ccccc2)cc1-c1ccc(C(=O)Nc2ccncc2)cc1 [GSK1398471] , %Inh observed: 0%

molecule Cc1ccc(-c2nc(Nc3ccncc3)c3ccccc3n2)s1 [GSK189015] , %Inh observed: 13%

molecule COC(=O)C(NC(=O)NC1CCN(c2ccnc(Nc3ccc(F)cc3)n2)C1)c1ccccc1 (centres unmarked) [GSK1379712] , %Inh observed: 3%

molecule CS(=O)(=O)CCNCc1nc(-c2ccc3ncnc(Nc4ccc(OCc5ccccc5)c(Cl)c4)c3c2)cs1.Cl [GW582764] , %Inh observed: 9%

molecule `COc1ccc(-c2coc3ccc(-c4nnc(C)o4)cc23)cc1` , %Inh observed: 0%

molecule COc1cc2ncnc(Nc3cccc(Br)c3)c2cc1OC.Cl [GI230329] , %Inh observed: 10%

molecule O=C(Nc1n[nH]c2nc(-c3cccs3)c(Br)cc12)C1CC1 [SB-735297] , %Inh observed: 6%

molecule Fc1ccc(-c2nn3cccc(F)c3c2-c2ccncc2)cc1 [GW475620] , %Inh observed: 30%

molecule CS(=O)(=O)CCNCc1nc(-c2ccc3ncnc(Nc4ccc5c(cnn5Cc5ccccc5)c4)c3c2)cs1.Cl.Cl [GW569716] , %Inh observed: 0%

molecule COc1ccc2cc(-c3nc(-c4ccccc4C(C)C)[nH]c3-c3ccncc3)ccc2c1 [SB-660566] , %Inh observed: 20%

molecule O=C(Nc1n[nH]c2cc(-c3ccsc3)ccc12)C1CC1 [SB-732932] , %Inh observed: 17%

molecule Cc1ccc(NC(=O)Nc2ccc(Cl)cc2)cc1-c1ccc(C(=O)Nc2ccncc2)cc1 [GSK1398472] , %Inh observed: 1%

molecule `CNCc1ccc2nc(NC(=O)c3ccc(C(C)(C)C)cc3)cn2c1` , %Inh observed: 0%

molecule Cc1ccc(NC(=O)Nc2ccc(Cl)c(C(F)(F)F)c2)cc1-c1ccc(C(=O)Nc2ccncc2)cc1 [GSK1398470] , %Inh observed: 9%

molecule Cc1c(Cn2c(C)c(C)n3c(=O)cc(N4CCOCC4)nc23)cccc1C(F)(F)F [GSK2328680] , %Inh observed: 10%

molecule `COc1ccc(CSc2nnc(-c3ccc4c(c3)CCO4)o2)cc1` , %Inh observed: 3%

molecule O=C(Nc1n[nH]c2nc(-c3ccco3)c(Br)cc12)C1CCN(Cc2ccccc2)C1.O=C(O)[C@H](O)[C@@H](O)C(=O)O (centres unmarked) [SB-742034] , %Inh observed: 8%

molecule `CN1c2ccc(-c3ccc(C(N)=O)cc3)cc2-c2[nH]ncc2S1(=O)=O` , %Inh observed: 0%

molecule `CC(=O)c1c(C)c2cnc(Nc3ccn(C)n3)nc2n(C2CCCC2)c1=O` , %Inh observed: 0%

molecule COc1cccc(CNC(=O)NC2CCN(c3ccnc(Nc4ccc(F)cc4)n3)C2)c1 (centres unmarked) [GSK1379723] , %Inh observed: 21%

molecule Cc1cnc(N)c(/C=C/c2cncc(C(=O)NCCc3ccc(Cl)cc3Cl)c2)c1.Cl [GSK190937] , %Inh observed: 0%

molecule `CNC(=O)c1ccc(C)c(-n2c(C)cc(OCc3ccc(F)cc3F)c(Br)c2=O)c1` , %Inh observed: 0%

molecule Fc1ccc(-c2nc[nH]c2-c2ccncc2)cc1 [SB-217360] , %Inh observed: 24%

molecule COc1ccc(Nc2nccc(NCCNC(=O)Nc3cc(C)ccc3C)n2)cc1 [GSK1379899] , %Inh observed: 1%

molecule `COc1ccc(CSc2nnc(-c3ccc4nccn4c3)o2)cc1C(F)(F)F` , %Inh observed: 0%
